These entries and their values trace back to PubChem BioAssay AID2314.

# Assay explanation: Cycloheximide Counterscreen for Small Molecule Inhibitors of Shiga Toxin; further: read at 38.3 µM for the half of the compounds with a filed dose
# Condition details: cell reporter, cycloheximide protein synthesis inhibition counterscreen
The whole screen tested about 300,000 compounds, of which about 37,000 (12%) were called active. No stated cut-off is given here; in the data, active means max response mostly above about 13% (no sharp cut-off); inactive means mostly below about 14%. The list comes from a sample in which actives are over-represented; it also holds close analogues and randomly drawn compounds.
Classes used: active, inactive

1) Cc1ccc(S(=O)(=O)N2CCC3(CC2)OCCO3)c(C)c1 : inactive
2) COCCNC(=O)c1ccc(N2CCC3(CC2)OCCO3)c([N+](=O)[O-])c1 : inactive
3) COc1ccc(-n2ncc3c(N4CCc5ccccc54)ncnc32)cc1 : active
4) CC(NC(=O)c1ccc(N2CCNCC2)c([N+](=O)[O-])c1)C12CC3CC(CC(C3)C1)C2 (centres undefined) : inactive
5) Fc1ccc(COc2ccc(-c3nnco3)cc2)cc1 : active
6) COc1ccc(NC(=O)CNC(=O)Cc2ccccc2)cc1OC : inactive
7) Cc1ccc(C(=O)CCC(=O)N(C)CC(=O)Nc2c(Cl)cccc2Cl)cc1 : inactive
8) COc1cccc(NC(=O)C/C(C)=N/NC(=O)C2CCCCC2)c1 : inactive
9) CCC1CCCCN1C(=O)CSc1nc2c(c(=O)n1C)SC(C)C2 (centres undefined) : inactive
10) Cc1cc(-c2ccc(C)c(S(=O)(=O)Nc3ccc(S(N)(=O)=O)cc3)c2)on1 : inactive
11) O=c1c2c(nc3nc[nH]n13)CCC2 : inactive
12) COc1ccc(Oc2c(Cl)cnn(-c3ccccc3)c2=O)cc1 : inactive
13) CC1CCN(C(=S)c2ccc(-c3ccc(Cl)cc3Cl)o2)CC1 : inactive
14) O=C(/C=C/c1ccc(F)cc1)Nc1cccc(S(=O)(=O)Nc2cccc(C(F)(F)F)c2)c1 : inactive
15) COc1ccc(CN(Cc2ccco2)S(=O)(=O)c2ccc(S(=O)(=O)N3CCCC3)cc2)cc1 : inactive
16) O=C(Nc1cccc(F)c1)NC1CCCc2ccccc21 (centres undefined) : inactive
17) Cc1ccc(S(=O)(=O)/N=S(\C)C(C)C)cc1 (centres undefined) : inactive
18) O=C(C1CCCO1)N1CCN(C(=S)NC2CC2)CC1 (centres undefined) : inactive
19) Cc1cc([N+](=O)[O-])c(-c2ccc(/C=N/n3cnnc3)o2)cc1Cl : inactive
20) COc1ccccc1NC(=O)CCN1CCN(c2ccc(Cl)cc2)CC1 : inactive
21) CCOc1ccc(NC(=S)N2CCCCCC2)cc1 : inactive
22) COC(=O)CN1C(=O)[C@H]2[C@@H](/C=C/c3ccccc3)N3C(=O)CN(Cc4ccccc4)C(=O)[C@@]3(Cc3ccccc3)[C@H]2C1=O : inactive
23) Fc1ccc(COc2cccc(-c3n[nH]c(=S)o3)c2)cc1 : inactive
24) O=C(C(Cc1ccccc1)n1cccc1)N1CCN(C2CCCCC2)CC1 (centres undefined) : inactive
25) COc1ccc(CCC(C)N2CCc3ccccc3C2)cc1 (centres undefined) : inactive
26) CCOC(=O)CSc1nc(C)c(Oc2ccc(Cl)cc2Cl)c(=O)[nH]1 : inactive
27) C[C@H](NC(=O)C1CC(=O)N(c2ccc3c(c2)OCO3)C1)C(=O)NCc1ccco1 (some centres undefined) : inactive
28) COc1ccc(-n2ncc3c(N4CCCc5ccccc54)ncnc32)cc1 : active
29) S=C(Nc1ccc2c(c1)OCO2)N1CCCC1 : active
30) COc1ccc(CC(=O)Nc2cc(S(=O)(=O)N3CCCCC3)ccc2N2CCN(C)CC2)cc1 : inactive
31) CN1CCN(c2ccc(S(=O)(=O)N3CCCCC3)cc2NC(=O)Cc2ccccc2F)CC1 : inactive
32) NS(=O)(=O)c1ccc(NC(=S)N2CCCC2)cc1 : inactive
33) CCOc1ccc(N(CC(=O)NCCc2ccc(F)cc2)S(=O)(=O)c2ccccc2)cc1 : inactive
34) Cc1ccc2c(c1)N(CC(=O)NCCc1ccc(Cl)cc1)C(=O)c1cccnc1O2 : inactive
